# System: Candida albicans
# assay: In vitro antifungal activity, MIC (Method A)
# Assay type: cell-based
# assay_context: Candida albicans, 72 h, pH 7, Candida albicans CY1005, 1×10^5 cells/ml, 3 days, 27° C.
Where a name gives a salt, the structure may show the parent alone.
experimental_endpoint: MIC (µg/mL)

See these solved cases before continuing.
CCCCCCC/C=C/[C@@H]1OC[C@H](C)C[C@H]1OC(=O)CN.O=C(O)C(F)(F)F [Example 28]: 50
CO[C@@H]1[C@H](OC(=O)CN)[C@H](CCCC(C)CCCC(C)C)OC[C@@H]1C.O=C(O)C(F)(F)F (stereo partly shown) [Example 8]: 50

A = CCCCCCC/C=C/[C@@H]1OC[C@@H](OCc2ccccc2)[C@H](OC)[C@@H]1OC(=O)CN.O=C(O)C(F)(F)F [Example 31]
B = CCCCC/C=C/C=C/[C@@H]1OC[C@H](C)[C@H](OC)[C@H]1OC(=O)CN.O=CO [Example 47]
C = CCCCCCCCO[C@@H]1CCC(C)(C)C[C@H]1CC(O)CN (relative stereo) [Example 84]
D = CCCCCCCCC[C@@H]1OC[C@H](C)[C@H](OCCC)[C@H]1OC(=O)CN [Example 23, trifluoroacetic acid salt]
E = CCC/C=C/C=C/C=C/[C@@H]1OC[C@H](C)[C@H](OC)[C@H]1OC(=O)CN.O=CO [Example 11]
Please produce an ascending ranking of these compounds based on MIC. Output spec: a listing of the labels in the requested order.
C, D, A, B, E

* * *

# Tested on: Aspergillus fumigatus
# assay: In vitro antifungal activity, MIC (Method A)
# Format: cell-based
# assay_context: Aspergillus fumigatus, 72 h, pH 7, Aspergillus fumigatus CF1004, 1×10^5 cells/ml, 3 days, 27° C.
Where a name gives a salt, the structure may show the parent alone.
experimental_endpoint: MIC (µg/mL)

See these solved cases before continuing.
CCCCCCCCC[C@@H]1OC[C@@H](C)[C@H](OC)[C@@H]1OC(=O)CN.O=C(O)C(F)(F)F [Example 43]: 50
CCCCCCCCO[C@@H]1CCC(C)(C)C[C@H]1CC(O)CN (relative stereo) [Example 84]: 6.25
CCCCCCC/C=C\[C@@H]1OC[C@H](C)[C@H](OC)[C@H]1OC(=O)CN [Example 1, acetic acid salt]: 200
CCCCC/C=C/C=C/[C@@H]1OC[C@H](C)[C@H](OC)[C@H]1OC(=O)CN.O=CO [Example 47]: 25
CCCCCCC/C=C/[C@@H]1OC[C@H](C)[C@H](OC)[C@H]1OC(=O)CN [Example 4, trifluoroacetic acid salt]: 3.13

P = CCCCCCC/C=C/[C@@H]1OC[C@H](C)C[C@H]1OC(=O)CN.O=C(O)C(F)(F)F [Example 28]
Q = CO[C@@H]1[C@H](OC(=O)CN)[C@H](CCCC(C)CCCC(C)C)OC[C@@H]1C.O=C(O)C(F)(F)F (stereo partly shown) [Example 8]
// returns P or Q , whichever has the lower MIC Mark your answer with the label of the selected entry.
P
(P: 50 µg/mL, Q: 100 µg/mL)

* * *

# System: Cryptococcus neoformans
# assay: In vitro antifungal activity, MIC (Method A)
# Assay type: cell-based
# assay_context: Cryptococcus neoformans, 72 h, pH 7, Cryptococcus neoformans CY1057, 1×10^5 cells/ml, 3 days, 27° C.
Structures can show the parent of a compound that is named as a salt.
experimental_endpoint: MIC (µg/mL)

See these solved cases before continuing.
CCCCCCC/C=C/[C@@H]1OC[C@H](C)[C@H](OC)[C@H]1OC(=O)CN [Example 4, trifluoroacetic acid salt]: 3.13
CCC/C=C/C=C/C=C/[C@@H]1OC[C@H](C)[C@H](OC)[C@H]1OC(=O)CN.O=CO [Example 11]: 6.25

P = CCCCCCC/C=C\[C@@H]1OC[C@H](C)[C@H](OCCC)[C@H]1OC(=O)CN [Example 22, trifluoroacetic acid salt]
Q = CCCCCCCCC[C@@H]1OC[C@H](C)[C@H](OCCC)[C@H]1OC(=O)CN [Example 23, trifluoroacetic acid salt]
// returns P or Q , whichever has the lower MIC Mark your answer with the label of the selected entry.
P

* * *

# System: Candida albicans
# assay: In vitro antifungal activity, MIC (Method A)
# Type: cell-based
# assay_context: Candida albicans, 72 h, pH 7, Candida albicans CY3003, 1×10^5 cells/ml, 3 days, 27° C.
experimental_endpoint: MIC (µg/mL)

See these solved cases before continuing.
CO[C@@H]1[C@H](OC(=O)CN)[C@H](CCCC(C)CCCC(C)C)OC[C@@H]1C.O=C(O)C(F)(F)F (stereo partly shown): 50
CCCCCCC/C=C\[C@@H]1OC[C@@H](C)[C@H](OC)[C@H]1OC(=O)CN.O=C(O)C(F)(F)F: 50
CCCCCCC/C=C/[C@@H]1OC[C@@H](OCc2ccccc2)[C@H](OC)[C@@H]1OC(=O)CN.O=C(O)C(F)(F)F: 25

a = CCCCCCC/C=C\[C@@H]1OC[C@H](C)[C@H](OCC)[C@@H]1OC(=O)CN.O=C(O)C(F)(F)F
b = CCCCCCCCC[C@@H]1OC[C@H](C)[C@H](OC)[C@@H]1OC(=O)CN.O=CO
// returns a or b , whichever has the lower MIC Mark your answer with the label of the selected entry.
b

* * *

# Test system: Aspergillus fumigatus
# assay: In vitro antifungal activity, MIC (Method A)
# Format: cell-based
# assay_context: Aspergillus fumigatus, 72 h, pH 7, Aspergillus fumigatus CF1003, 1×10^5 cells/ml, 3 days, 27° C.
Where a name gives a salt, the structure may show the parent alone.
experimental_endpoint: MIC (µg/mL)

CCCCCCCCC[C@@H]1OC[C@H](C)[C@H](OCCC)[C@H]1OC(=O)CN [Example 23, trifluoroacetic acid salt]: 50
CCCCCCCCC[C@@H]1OC[C@H](C)[C@H](OC)[C@@H]1OC(=O)CN.O=CO: 50

1 = CCCCCCC/C=C/[C@@H]1OC[C@H](C)C2(OCCO2)[C@H]1OC(=O)CN.O=C(O)C(F)(F)F
2 = CCCCCCCCC[C@@H]1OC[C@H](C)C=C1Cn1ccnc1
// returns 1 or 2 , whichever has the lower MIC Mark your answer with the label of the selected entry.
2

I = CCCCCCCC/C=C/[C@@H]1OC[C@H](C)[C@H](OC)[C@H]1OC(=O)CN.O=C(O)C(F)(F)F
II = CCC/C=C/C=C/C=C\[C@@H]1OC[C@H](C)[C@H](OC)[C@H]1OC(=O)CN.O=CO
Which value of MIC is greater, the one for I or the one for II ? Mark your answer with the label of the selected entry.
II

1 = CCCCCCCCO[C@@H]1CCC(C)(C)[C@H](OC)[C@@H]1Cn1ccnc1
2 = CCCCCCC/C=C\[C@@H]1OC[C@H](C)[C@H](OCCC)[C@H]1OC(=O)CN [Example 22, trifluoroacetic acid salt]
// returns 1 or 2 , whichever has the lower MIC Mark your answer with the label of the selected entry.
1

* * *

# Test system: Cryptococcus neoformans
# assay: In vitro antifungal activity, MIC (Method A)
# Format: cell-based
# assay_context: Cryptococcus neoformans, 72 h, pH 7, Cryptococcus neoformans CY1057, 1×10^5 cells/ml, 3 days, 27° C.
Counter-ions that a name gives are not always drawn.
experimental_endpoint: MIC (µg/mL)

CCCCC/C=C/C=C/[C@@H]1OC[C@H](C)[C@H](OC)[C@H]1OC(=O)CN.O=CO [Example 47]: 12.5

1 = CCCCCCC/C=C/[C@@H]1OC[C@H](C)C[C@H]1OC(=O)CN.O=C(O)C(F)(F)F [Example 28]
2 = CCCCCCCCC[C@@H]1OC[C@H](C)[C@H](OC)[C@@H]1OC(=O)CN.O=CO [Example 5]
3 = CCCCCCC/C=C\[C@@H]1OC[C@H](C)[C@H](OC)[C@H]1OC(=O)CN [Example 1, acetic acid salt]
Please produce an ascending ranking of these compounds based on MIC. Output spec: a listing of the labels in the requested order.
3, 1, 2

* * *

# IC80 listing for each entry below
# System: A. fumigatus
# assay: In vitro antifungal activity, IC80 (Method B)
# Format: cell-based
# assay_context: Aspergillus fumigatus, A. fumigatus CF1003; 1×10^4 cells/ml, 1-2 days, 27° C., 0.2% agar; read-out: Antifungal activity IC80
Could you give me the number in µg/mL? Just the number is fine.

See these solved cases before continuing.
CO[C@@H]1[C@@H](Cn2cncn2)[C@H](CSc2ccc(Cl)cc2)CCC1(C)C [Example 73]: 23
CO[C@@H]1[C@@H](Cn2cncn2)[C@H](CCc2ccc(N(C)C)cc2)CCC1(C)C [Example 71]: 32

What measured IC80 goes with CO[C@@H]1[C@@H](Cn2cncn2)[C@H](CCc2ccc(Cl)cc2)CCC1(C)C [Example 72] ?
14

* * *

# Tested on: Candida albicans
# assay: In vitro antifungal activity, MIC (Method A)
# Type: cell-based
# assay_context: Candida albicans, 72 h, pH 7, Candida albicans CY1005, 1×10^5 cells/ml, 3 days, 27° C.
Structures can show the parent of a compound that is named as a salt.
experimental_endpoint: MIC (µg/mL)

CCCCCCC/C=C/[C@@H]1OC[C@H](C)[C@H](OC)[C@H]1OC(=O)CN [Example 4, trifluoroacetic acid salt]: 50

P = CCCCCCCCC[C@@H]1OC[C@@H](C)[C@H](OC)[C@@H]1OC(=O)CN.O=C(O)C(F)(F)F
Q = CCCCCCC/C=C\[C@@H]1OC[C@H](C)[C@H](OCC)[C@@H]1OC(=O)CN.O=C(O)C(F)(F)F
R = CCCCCCC/C=C\[C@@H]1OC[C@@H](C)[C@H](OC)[C@H]1OC(=O)CN.O=C(O)C(F)(F)F
Please produce an ascending ranking of these compounds based on MIC. Output spec: a listing of the labels in the requested order.
P, R, Q
(P: 25 µg/mL, R: 50 µg/mL, Q: 100 µg/mL)
